Test: Plasma pharmacokinetic study after single intravenous administration
Format: in vivo
Conditions: Sprague-Dawley, rat, rats, single i.v. 5 mg/kg
Description: In this study, a direct protein precipitation method was applied to extract alnustone and IS from the biological matrix. […] Alnustone was quantitatively determined with MRM in the positive ion mode, and nitrogen was used to assist nebulization in the ESI source. […] The pharmacokinetic parameters were evaluated using DAS 3.2.8 pharmacokinetic program.
Assay readout: Tmax
# do not omit the unit; it follows the number

Memo: `O=C(/C=C/C=C/c1ccccc1)CCc1ccccc1` , reported Tmax: 2 min

###

Experiment: Tissue distribution study after intravenous administration
Format: in vivo, Sprague-Dawley rats
Conditions: Sprague-Dawley, rat, iv; Kidney, 1 h, rats, i.v. 5 mg/kg, n = 5
Assay readout: Kp at 1 h
# respond with the number and nothing more

Looking up `O=C(/C=C/C=C/c1ccccc1)CCc1ccccc1` , I see its Kp at 1 h listed as 0.74

###

Experiment: Tissue distribution study after intravenous administration
Assay type: in vivo, Sprague-Dawley rats
Conditions: Sprague-Dawley, rat, iv; Liver, 0.5 h, rats, i.v. 5 mg/kg, n = 5
Assay readout: Kp at 0.5 h
Enter a number only.

`O=C(/C=C/C=C/c1ccccc1)CCc1ccccc1` yielded Kp at 0.5 h of 1.28

###

Assay: Tissue distribution study after intravenous administration
Format: in vivo, Sprague-Dawley rats
Settings: Sprague-Dawley, rat, iv; Intestine, 4 h, rats, i.v. 5 mg/kg, n = 5
Assay readout: Kp at 4 h
Give a plain numeric answer without units written out.

Sure, the documented Kp at 4 h for O=C(/C=C/C=C/c1ccccc1)CCc1ccccc1 [alnustone, Alnustone] is 1.18

###

Test: Tissue distribution study after intravenous administration
Type: in vivo, Sprague-Dawley rats
Details: Sprague-Dawley, rat, iv; Kidney, 4 h, rats, i.v. 5 mg/kg, n = 5
Protocol: The rat was sacrificed quickly by decapitation on the ice. The various tissues (heart, liver, spleen, lung, kidney, brain, stomach, intestine) were harvested and rinsed with ice-cold 0.9% NaCl to remove the superficial blood. […] The mobile phase consisted of methanol and 0.1% formic acid water using a gradient dilution at a flow rate of 0.3 mL/min. […] Alnustone was quantitatively determined with MRM in the positive ion mode, and nitrogen was used to assist nebulization in the ESI source. […]
Assay readout: Kp at 4 h
Answer using only a numeral; do not append any unit.

Note to self: Kp at 4 h recorded for `O=C(/C=C/C=C/c1ccccc1)CCc1ccccc1` was 1.86

###

Test: Plasma pharmacokinetic study after single intravenous administration
Type: in vivo
Conditions: Sprague-Dawley, rat, rats, single i.v. 5 mg/kg, n = 12
Assay readout: half-life (h)
Numbers only; they are read as h.

Per the record, `O=C(/C=C/C=C/c1ccccc1)CCc1ccccc1` has half-life of 1.31

###

Test: Tissue distribution study after intravenous administration
Type: in vivo, Sprague-Dawley rats
Conditions: Sprague-Dawley, rat, iv; Heart, 0.5 h, rats, i.v. 5 mg/kg, n = 5
Assay readout: Kp at 0.5 h
Please state the value as a number alone, without comment.

So, O=C(/C=C/C=C/c1ccccc1)CCc1ccccc1 [alnustone, Alnustone] ? Its Kp at 0.5 h was 0.36

###

Assay: Tissue distribution study after intravenous administration
Assay type: in vivo, Sprague-Dawley rats
Details: Sprague-Dawley, rat, iv; Kidney, 2 h, rats, i.v. 5 mg/kg, n = 5
Assay readout: Kp at 2 h

For record O=C(/C=C/C=C/c1ccccc1)CCc1ccccc1 [alnustone, Alnustone] the listed Kp at 2 h is 1.49
